# credit: patent US5684151A

The next entries give measured pIC50 for progestin receptor from rabbit uterus (Oryctolagus cuniculus).
Worth noting: pIC50 values are minus log10 of concentrations stated in mol/L.

Look over these answered cases.
O=S(=O)(c1ccc(F)cc1)N1CCCC(c2ccccc2)=N1 : 6.11
O=S(=O)(c1ccc(I)cc1)N1CCCC(c2ccc3c(c2)oc2ccccc23)=N1 : 7.00
O=C(c1cc(Cl)cc(Cl)c1)N1CCCC(c2ccc(Cl)c(Cl)c2)=N1 : 6.02
O=S(=O)(c1ccccc1)N1CCCC(c2ccc(Cl)c(Cl)c2)=N1 : 8.48
O=S(=O)(c1ccc(I)cc1)N1CCCC(c2ccc(Cl)c(Cl)c2)=N1 : 8.93
O=S(=O)(c1ccc2ccccc2c1)N1CCCC(c2ccc(Cl)c(Cl)c2)=N1 : 9.01

Return reported pIC50; argument: O=[N+]([O-])c1ccc(S(=O)(=O)N2CCCC(c3ccc(Cl)c(C(F)(F)F)c3)=N2)cc1
7.85

And for Cc1ccc(S(=O)(=O)N2CCCC(c3ccc4c(c3)CCCC4)=N2)cc1 ?
7.09

Continue with O=S(=O)(c1ccccc1)N1CCCC(c2ccc3c(c2)CCCC3)=N1
7.14

Same for O=S(=O)(c1cc(Cl)ccc1Cl)N1CCCC(c2ccc(Cl)c(Cl)c2)=N1
9.27

Please do the same for CC(C)(C)c1ccc(C(=O)N2CCCC(c3ccc(Cl)cc3)=N2)cc1 as well.
4.00

Please give the result for O=S(=O)(c1ccc(F)cc1)N1CCCC(c2ccc(Cl)cc2)=N1 too.
7.32

Now consider O=S(=O)(c1ccc(Br)cc1)N1CCCC(c2ccc(F)cc2)=N1 .
7.21

----------
# System: mouse (MC3T3-E1) and human (TE-85) osteoblast-line cells
# Format: cell-based
# cond: 10^-10
# Excerpt: Compounds of the present invention have utility to treat osteoporosis through enhancement of bone calcification rather than traditional approaches which generally involve inhibition of bone degeneration or resorption. The compounds of the present invention have been evaluated as stimulators of proliferation of osteoblast cell and chick calivaria bone organ culture which is predictive of enhancement of bone mass and bone formation in vivo. […]
experimental-endpoint: Osteoblast Cell Proliferation, 3H-thymidine incorporation vs control (100%)
Write the number in % without appending the unit.

Known results for compounds:
O=S(=O)(c1ccc(Cl)c(Cl)c1)N1CCCC(c2ccc(Cl)c(C(F)(F)F)c2)=N1 : 128
O=C(c1ccc(Cl)cc1)N1CCCC(c2ccc(F)cc2)=N1 : 109
O=S(=O)(c1ccc2ccccc2c1)N1CCCC(c2ccc(-c3ccccc3)cc2)=N1 : 48
CS(=O)(=O)c1ccc(S(=O)(=O)N2CCCC(c3ccc(Cl)c(Cl)c3)=N2)cc1 : 136

Now for another entry.
Report Osteoblast Cell Proliferation, 3H-thymidine incorporation vs control (100%) for Cc1ccc(C(=O)N2CCCC(c3ccc(Cl)cc3)=N2)cc1 please.
148

----------
# Test system: mouse (MC3T3-E1) and human (TE-85) osteoblast-line cells
# Type: cell-based
# cond: 10^-10
experimental-endpoint: Osteoblast Cell Proliferation, 3H-thymidine incorporation vs control (100%)
Output spec: scalar in %, unitless text.

Sample records with Osteoblast Cell Proliferation, 3H-thymidine incorporation vs control (100%):
CC1CC(c2ccccc2)=NN(S(=O)(=O)c2cc(Cl)ccc2Cl)C1 (stereo not drawn) : 108
Cc1ccc(/C=C/S(=O)(=O)N2CCCC(c3ccc(Cl)c(Cl)c3)=N2)cc1 : 195
O=S(=O)(c1ccc(I)cc1)N1CCCC(c2ccc3c(c2)CCCC3)=N1 : 90
S=C(c1cc(Cl)cc(Cl)c1)N1CCCC(c2ccccc2)=N1 : 129
Nc1c(Br)cc(C2=NN(C(=O)c3ccc(Cl)c(Cl)c3)CCC2)cc1Br : 115
COc1ccc(C2=NN(C(=O)c3ccc(Cl)c(Cl)c3)CCC2)cc1 : 128

So what does the record say about Osteoblast Cell Proliferation, 3H-thymidine incorporation vs control (100%) for Cc1ccc(S(=O)(=O)N2CCCC(c3ccc(F)cc3)=N2)cc1 ?
119

Next: CCOP(=O)(c1ccccc1)N1CCCC(c2ccc(Cl)c(Cl)c2)=N1 (stereo not drawn)
145

What would you report for O=[N+]([O-])c1ccc(S(=O)(=O)N2CCCC(c3ccc(Cl)cc3)=N2)cc1 ?
158
